Assay: Cell counting (Trypan blue, automated cell counter) on composite microbead-microwell live cell microarray
Details: human, MCF-7 cells on a microbead-microwell array plate

COMPOUND	UNIT STRING	viability at 24 h
COc1cc([C@@H]2c3cc4c(cc3[C@@H](O[C@@H]3O[C@@H]5CO[C@@H](C)O[C@H]5[C@H](O)[C@H]3O)[C@H]3COC(=O)[C@H]23)OCO4)cc(OC)c1O [etoposide]	%	44
